Tested On: PI3Kα H1047R (T47D cells) (Homo sapiens, UniProt P42336, H1047R)
Construct: endogenous in cells; host or cells: T47D cells
Sequence (P42336 whole entry H1047R): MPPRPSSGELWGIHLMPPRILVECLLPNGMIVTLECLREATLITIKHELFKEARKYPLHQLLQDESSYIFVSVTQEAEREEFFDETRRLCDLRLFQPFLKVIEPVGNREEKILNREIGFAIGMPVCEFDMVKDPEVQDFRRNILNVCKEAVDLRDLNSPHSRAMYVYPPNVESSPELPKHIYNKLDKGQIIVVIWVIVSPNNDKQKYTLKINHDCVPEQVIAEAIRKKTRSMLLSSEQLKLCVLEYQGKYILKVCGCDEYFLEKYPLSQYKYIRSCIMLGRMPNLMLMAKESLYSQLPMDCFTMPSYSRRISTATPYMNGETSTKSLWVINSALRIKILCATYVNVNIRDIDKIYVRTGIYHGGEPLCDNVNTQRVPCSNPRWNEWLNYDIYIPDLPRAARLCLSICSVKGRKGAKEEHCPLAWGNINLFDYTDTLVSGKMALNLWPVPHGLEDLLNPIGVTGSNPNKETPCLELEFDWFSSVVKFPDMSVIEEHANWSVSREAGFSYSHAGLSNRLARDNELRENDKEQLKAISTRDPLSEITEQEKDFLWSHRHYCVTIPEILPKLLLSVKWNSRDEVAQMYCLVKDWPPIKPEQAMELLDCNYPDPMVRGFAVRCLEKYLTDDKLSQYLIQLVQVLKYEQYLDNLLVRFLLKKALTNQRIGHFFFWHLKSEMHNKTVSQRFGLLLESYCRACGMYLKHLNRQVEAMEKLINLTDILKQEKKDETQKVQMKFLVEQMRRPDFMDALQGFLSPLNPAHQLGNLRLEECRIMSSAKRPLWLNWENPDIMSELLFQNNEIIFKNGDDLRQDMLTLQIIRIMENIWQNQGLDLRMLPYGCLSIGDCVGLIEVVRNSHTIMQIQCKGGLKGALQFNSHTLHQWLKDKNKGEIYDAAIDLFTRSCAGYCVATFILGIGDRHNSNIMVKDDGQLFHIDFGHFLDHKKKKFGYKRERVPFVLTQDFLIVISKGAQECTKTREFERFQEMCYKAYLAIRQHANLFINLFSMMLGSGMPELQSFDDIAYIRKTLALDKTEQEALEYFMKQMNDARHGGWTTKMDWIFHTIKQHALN
Sequence (P27986 whole entry partner): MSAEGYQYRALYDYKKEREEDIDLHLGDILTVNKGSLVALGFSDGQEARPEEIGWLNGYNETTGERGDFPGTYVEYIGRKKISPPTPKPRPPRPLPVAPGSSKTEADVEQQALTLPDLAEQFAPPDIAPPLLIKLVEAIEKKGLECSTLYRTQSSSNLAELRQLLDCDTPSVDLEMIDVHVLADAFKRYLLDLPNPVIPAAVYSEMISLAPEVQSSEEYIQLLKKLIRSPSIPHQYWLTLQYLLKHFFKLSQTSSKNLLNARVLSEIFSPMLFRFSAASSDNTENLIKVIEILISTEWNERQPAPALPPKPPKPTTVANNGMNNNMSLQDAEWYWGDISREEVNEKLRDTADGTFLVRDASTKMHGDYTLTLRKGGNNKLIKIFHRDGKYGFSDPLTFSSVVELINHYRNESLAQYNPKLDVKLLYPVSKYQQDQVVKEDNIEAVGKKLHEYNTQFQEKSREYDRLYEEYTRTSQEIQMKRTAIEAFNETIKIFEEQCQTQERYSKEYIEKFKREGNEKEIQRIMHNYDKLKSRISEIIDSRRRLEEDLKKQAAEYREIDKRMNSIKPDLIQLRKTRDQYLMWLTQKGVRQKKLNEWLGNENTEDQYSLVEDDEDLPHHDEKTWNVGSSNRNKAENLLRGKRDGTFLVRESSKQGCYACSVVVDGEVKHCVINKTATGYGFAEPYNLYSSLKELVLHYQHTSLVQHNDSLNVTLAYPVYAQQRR
Assay Protocol: PI3Kα cellular assay: pAKT HTRF in T47D cells after EGF stimulation
Type: cell-based
Condition Set: T47D cells (PI3Kα H1047R), pAKT S473 HTRF, EGF stimulation
Description: SKBR3 or T47D cells are seeded in DMEM containing 10% FBS at 25k cells/well into 96-well cell culture format. […] 384 well plate is left overnight at room temperature before reading HTRF on an Envision plate reader. ND denotes value not determined with that assay for the specified compound; • for T47D (H1047R) selectivity over SKBR3 (WT): A denotes >20-fold; B denotes 20-fold≥value>5-fold; C denotes ≤5-fold. […] ND denotes value not determined with that assay for the specified compound.
Measure Name: IC50

Here are 3 compounds together with their reported answers.
Compound: Cc1cc([C@H](C)Nc2ccccc2C(=O)O)c2nc(OC3CCOCC3)c(C)c(=O)n2c1 (single isomer, unassigned) [Compound 1371]
IC50: < 100 nM
--
Compound: Cc1cc([C@H](C)Nc2ccccc2C(=O)O)c2nc(-c3ccc4c(c3)CC(F)(F)C4)cc(=O)n2c1 [Compound 854]
IC50: > 2000 nM
--
Compound: Cc1cc(C(C)Nc2ccccc2C(=O)O)c2nc(-c3ccc(C4CNC4)nc3)c(C)c(=O)n2c1 (centres unmarked) [Compound 1303]
IC50: > 2000 nM

State IC50 (PI3Kα H1047R (T47D cells) (Homo sapiens, UniProt P42336, H1047R)) of Cc1cc([C@H](C)Nc2ccccc2C(=O)O)c2nc(C3CCN(S(N)(=O)=O)CC3)cc(=O)n2c1 [Compound 756] . > 2000 nM

With PI3Kα H1047R (T47D cells) (Homo sapiens, UniProt P42336, H1047R) as the test system, provide measured IC50 for this compound: Cc1cc(C(C)Nc2ccccc2C(=O)O)c2nc(N3Cc4ccccc4C3)c(C)c(=O)n2c1.O=C(O)C(F)(F)F (centres unmarked) [Compound 1412, trifluoroacetate] < 100 nM

Quote PI3Kα H1047R (T47D cells) (Homo sapiens, UniProt P42336, H1047R) IC50 for entry Cc1cc([C@@H](C)Nc2ccccc2C(=O)O)c2nc(-c3cnc(C)c(Cl)c3)cc(=O)n2c1 [Compound 1157] . 100 to 500 nM

Quote PI3Kα H1047R (T47D cells) (Homo sapiens, UniProt P42336, H1047R) IC50 for entry Cc1cc([C@H](C)Nc2ccccc2C(=O)O)c2nc(-c3ccc4[nH]c(=O)sc4c3)c(C)c(=O)n2c1 [Compound 946] . 500 to 2000 nM

Give IC50 only, for CC(=O)Nc1nn(C)c2ccc(-c3cc(=O)n4cc(C)cc(C(C)Nc5ccccc5C(=O)O)c4n3)cc12 (centres unmarked) [Compound 792] , using PI3Kα H1047R (T47D cells) (Homo sapiens, UniProt P42336, H1047R) data. > 2000 nM
